- Test system: UACC-257 melanoma
- assay: NCI tumour cell line growth inhibition, 48 h
# Lookup of reported GI50 keyed by entry
readout: GI50

- compound: "Oc1cc2ccccc2c(-c2c(O)c(O)cc3ccccc23)c1O"
  assay-target: "UACC-257 melanoma"
  val: "3.24 µM"
- compound: "C[C@@H](Oc1ccc(C(=O)NS(=O)(=O)C(C)(C)C)cc1C(F)(F)F)c1ccc(Oc2ccccc2)cn1"
  assay-target: "UACC-257 melanoma"
  val: "11.9 µM"
- compound: "CCCCCCCCCCCCCCCCC(=O)O.CCCCCCCCCCCCCCCCCC(=O)O.CCCCCCCCCCCCCCCCCC(=O)O.CCCCCCCCCCCCCCCCCC(=O)O.CCCCCCCCCCCCCCCCCC(=O)O.CO[CH-]OC12COC1CC(O)C1(C)C(O)C(OC(C)O)C3=C(C)C(OC(=O)C(O)C([NH-])c4ccccc4)CC(O)(C(OC(=O)c4ccccc4)C21)C3(C)C.[Cu+].[Zn].[Zn].[Zn].[Zn].[Zn] (stereo unspecified)"
  assay-target: "UACC-257 melanoma"
  val: "3.91 µM"
- compound: "Cc1ccc(NC(=O)c2sc3nc4c(cc3c2N)C(=O)CCC4)cc1C"
  assay-target: "UACC-257 melanoma"
  val: "21.6 µM"
- compound: "O=C(Nc1n[nH]c2nnc(-c3cccnc3)cc12)C1CC1"
  assay-target: "UACC-257 melanoma"
  val: "> 17.4 µM"
- compound: "CC1(C)[C@@H](OC(=O)CCC(=O)O)CC[C@]2(C)[C@H]3C(=O)C=C4[C@@H]5C[C@@](C)(C(=O)O)CC[C@]5(C)CC[C@@]4(C)[C@]3(C)CC[C@@H]12"
  assay-target: "UACC-257 melanoma"
  val: "66.2 µM"
